Assay: Ratio of Cmax for test compound to Cmax for Ketamine HCL in Sprague-Dawley rat at 4.64 mg/kg,po administration measured upto 4 hrs
Type: ADME, organism-based
Settings: in vivo
Is Ratio at least 200%? Then satisfied. If not, not satisfied.

Use these answered entries as a reference point.
1. CC(C)[C@H](NC(=O)c1ccc[n+](COC(=O)N(C)C2(c3ccccc3Cl)CCCCC2=O)c1)C(=O)O.[Cl-] (stereo partly specified)
satisfied
2. CN(C(=O)OC[n+]1cccc(C(=O)N2CCC[C@H]2C(=O)O)c1)C1(c2ccccc2Cl)CCCCC1=O.[Cl-] (stereo partly specified)
not satisfied
3. C[C@H](NC(=O)c1ccc[n+](COC(=O)N(C)C2(c3ccccc3Cl)CCCCC2=O)c1)C(=O)O.[Cl-] (stereo partly specified)
not satisfied
4. CN(CC(=O)O)C(=O)c1ccc[n+](COC(=O)N(C)C2(c3ccccc3Cl)CCCCC2=O)c1.[Cl-] (stereo unspecified)
not satisfied
5. CN(C(=O)OC[n+]1cccc(C(=O)N[C@@H](CCCCN)C(=O)O)c1)C1(c2ccccc2Cl)CCCCC1=O.Cl.[Cl-] (stereo partly specified)
not satisfied

Attention now shifts to the item below.
Confirm if Ratio reported for the molecule CC[C@H](C)[C@H](NC(=O)c1ccc[n+](COC(=O)N(C)C2(c3ccccc3Cl)CCCCC2=O)c1)C(=O)O.[Cl-] (stereo partly specified) is 200% or above.
satisfied

Data origin: ChEMBL document CHEMBL5608226
